The measurements presented in this section are drawn from patent US9505728B2.

Reported log10 of IC50 is given for each of the following compounds.
Target: Human PPARα (Homo sapiens)
Construct: host or cells: proprietary non-human mammalian cells
Experiment: Human PPARα Reporter Assay (luciferase)
Assay type: cell-based
Settings: human PPARα reporter cells, overnight incubation, antagonism; read-out: Luciferase IC50
experimental-readout: log10 of IC50 (log10 of the value in µM)

CCn1c(CCCc2ccc(-c3ccc(C(F)(F)F)c(N)c3)cc2)nn(Cc2ccc(C(C)(C)C)cc2)c1=O -0.62
CCn1c(CCCc2ccc(-c3cccc(CC(=O)O)c3)cc2)nn(Cc2ccccc2)c1=O 0.86
CCn1c(CCCc2ccc(-c3cccc(C(C)(C)C(N)=O)c3)cc2)nn(Cc2ccc(C(C)(C)C)cc2)c1=O -0.28
CCCOc1ccc(-c2ccc(CCCc3nn(Cc4ccc(C(C)(C)C)cc4)c(=O)n3CC)cc2)cc1C(=O)O -2.05
CCn1c(CCCc2ccc(-c3cccc(CC(=O)NS(=O)(=O)c4ccccc4)c3)cc2)nn(Cc2ccc(C(C)(C)C)cc2)c1=O -0.52
CCn1c(CCCc2ccc(-c3ccc(OC(F)(F)F)c(C(=O)O)c3)cc2)nn(Cc2ccc(C(C)(C)C)cc2)c1=O -1.82

----------
Molecular target: Human PPARα (Homo sapiens)
Construct: host or cells: proprietary non-human mammalian cells
Assay: Human PPARα Reporter Assay (luciferase)
Format: cell-based
Settings: human PPARα reporter cells, overnight incubation, antagonism; read-out: Luciferase IC50

compound	IC50
CCC(C(=O)O)c1cccc(-c2ccc(CCCc3nn(Cc4ccc(C(C)(C)C)cc4)c(=O)n3CC)cc2)c1 (stereo not shown) [Example 46]	699 nM
CCn1c(CCCc2ccc(-c3cnc(C4(O)COC4)nc3)cc2)nn(Cc2ccc(C(C)(C)C)cc2)c1=O [Example 173]	126 nM
CCn1c(CCCc2ccc(-c3ccc(S(=O)(=O)NCc4ccccc4)cc3)cc2)nn(Cc2ccc(C(C)(C)C)cc2)c1=O [Example 99]	524 nM
CCn1c(CCCc2ccc(-c3cc(CC(=O)O)ccc3F)cc2)nn(Cc2ccc(C(C)(C)C)cc2)c1=O [Example 19]	796 nM
CCn1c(CCCc2ccc(-c3cccc(NS(=O)(=O)c4ccccc4)n3)cc2)nn(Cc2ccc(C(C)(C)C)cc2)c1=O [Example 4]	40 nM
CCn1c(CCCc2ccc(-c3cccc(NC(=O)C4CC4)n3)cc2)nn(Cc2ccc(C(C)(C)C)cc2)c1=O [Example 102]	695 nM
CCn1c(CCCc2ccc(-c3cccc(NC(=O)Nc4ccccc4)n3)cc2)nn(Cc2ccc(C(C)(C)C)cc2)c1=O [Example 153]	947 nM
CCn1c(CCCc2ccc(-c3cccc(CC(=O)O)n3)cc2)nn(Cc2ccc(C(C)(C)C)cc2)c1=O [Example 50]	568 nM
CCn1c(CCCc2ccc(-c3ccc(NS(=O)(=O)Cc4ccccc4)c(C)n3)cc2)nn(Cc2ccc(C(C)(C)C)cc2)c1=O [Example 125]	356 nM
CCn1c(CCCc2ccc(-c3ccc(OC)c(N)n3)cc2)nn(Cc2ccc(C(C)(C)C)cc2)c1=O [Example 58]	71 nM
CCn1c(CCCc2ccc(-c3cccc(C4CC4C(=O)O)c3)cc2)nn(Cc2ccc(C(C)(C)C)cc2)c1=O (stereo not shown) [Example 35]	1120 nM
CCn1c(CCCc2ccc(-c3cccc(NS(=O)(=O)c4ccc(Cl)cc4)n3)cc2)nn(Cc2ccc(C(C)(C)C)cc2)c1=O [Example 83]	60 nM
CCn1c(CCCc2ccc(-c3nccc(NS(=O)(=O)c4ccccc4)n3)cc2)nn(Cc2ccc(C(C)(C)C)cc2)c1=O [Example 81]	127 nM

----------
Target: Human PPARα (Homo sapiens, UniProt Q07869)
Construct: host or cells: proprietary non-human mammalian cells
Sequence (Q07869 whole entry): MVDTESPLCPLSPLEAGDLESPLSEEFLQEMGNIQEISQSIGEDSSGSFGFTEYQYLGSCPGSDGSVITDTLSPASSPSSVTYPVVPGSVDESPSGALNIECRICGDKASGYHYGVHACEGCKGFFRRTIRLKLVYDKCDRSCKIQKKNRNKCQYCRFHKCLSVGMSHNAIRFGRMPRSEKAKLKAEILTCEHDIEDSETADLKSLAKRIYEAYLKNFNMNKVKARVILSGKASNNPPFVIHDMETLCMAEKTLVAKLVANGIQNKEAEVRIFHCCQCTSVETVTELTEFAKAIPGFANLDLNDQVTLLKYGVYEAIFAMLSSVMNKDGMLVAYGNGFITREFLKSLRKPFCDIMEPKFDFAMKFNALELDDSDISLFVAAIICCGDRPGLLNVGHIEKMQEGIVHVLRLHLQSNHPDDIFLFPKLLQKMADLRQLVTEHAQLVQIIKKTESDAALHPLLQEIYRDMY
Test: Human PPARα Reporter Assay (luciferase)
Format: cell-based
Settings: human PPARα reporter cells, overnight incubation, antagonism; read-out: Luciferase IC50
experimental-readout: log10 of IC50 (log10 of the value in nM)

compound	measured-on	log10 of IC50
CCn1c(CCCc2ccc(-c3ccc(C)c(N)c3)cc2)nn(Cc2ccc(C(C)(C)C)cc2)c1=O [Example 149]	Human PPARα (Homo sapiens, UniProt Q07869)	2.21
CCn1c(CCCc2ccc(-c3ccc(OC)c(N)c3)cc2)nn(Cc2ccc(C(C)(C)C)cc2)c1=O [Example 147]	Human PPARα (Homo sapiens, UniProt Q07869)	1.93
CCn1c(CCCc2ccc(-c3cc(C)c(NS(=O)(=O)c4ccccc4)cn3)cc2)nn(Cc2ccc(C(C)(C)C)cc2)c1=O [Example 126]	Human PPARα (Homo sapiens, UniProt Q07869)	2.30
CCn1c(CCCc2ccc(-c3ccc(OC)c(N(C)S(=O)(=O)c4ccccc4)n3)cc2)nn(Cc2ccc(C(C)(C)C)cc2)c1=O [Example 110]	Human PPARα (Homo sapiens, UniProt Q07869)	2.73
CCn1c(CCCc2ccc(-c3ccc(C4(O)CCC4)cc3)cc2)nn(Cc2ccc(C(C)(C)C)cc2)c1=O [Example 176]	Human PPARα (Homo sapiens, UniProt Q07869)	1.89
CCn1c(CCCc2ccc(-c3cccc(C(=O)O)c3)cc2)nn(Cc2ccc(C(C)(C)C)cc2)c1=O [Example 2]	Human PPARα (Homo sapiens, UniProt Q07869)	1.76
CCNC(=O)Nc1ccc(-c2ccc(CCCc3nn(Cc4ccc(C(C)(C)C)cc4)c(=O)n3CC)cc2)nc1 [Example 169]	Human PPARα (Homo sapiens, UniProt Q07869)	2.73
CCn1c(CCCc2ccc(-c3ncc(N)cc3C(F)(F)F)cc2)nn(Cc2ccc(C(C)(C)C)cc2)c1=O [Example 156]	Human PPARα (Homo sapiens, UniProt Q07869)	2.84
CCn1c(CCCc2ccc(-c3cncc(NS(=O)(=O)c4ccccc4)c3)cc2)nn(Cc2ccc(C(C)(C)C)cc2)c1=O [Example 117]	Human PPARα (Homo sapiens, UniProt Q07869)	2.90
CCn1c(CCCc2ccc(-c3ccc(C(F)(F)F)c(N)n3)cc2)nn(Cc2ccc(C(C)(C)C)cc2)c1=O [Example 161]	Human PPARα (Homo sapiens, UniProt Q07869)	2.80
